- Test system: Mus musculus
- protocolDescription: Compound was evaluated for the antimetrazole effect by administering through intravenous route at the pretreatment period of 120 min
- Format: functional
assayMetric: ED50 (mg/kg)
Report the figure in mg/kg without appending any unit label.

# compound, assayMetric, valueUnit, dataValue
rows = [
    ("O=C1Nc2ccc(Cl)cc2C(c2ccccc2)=NC1O (centres undefined) [OXAZEPAM]", "ED50", "mg/kg", 0.49),
    ("CCC(CC)C(=O)OC1N=C(c2ccccc2)c2cc(Cl)ccc2NC1=O (centres undefined)", "ED50", "mg/kg", 0.32),
    ("CC(C)(C)C(=O)OC1N=C(c2ccccc2)c2cc(Cl)ccc2NC1=O (centres undefined) [PIVOXAZEPAM]", "ED50", "mg/kg", 0.61),
]

Return reported ED50; argument: CC(=O)OC1N=C(c2ccccc2)c2cc(Cl)ccc2NC1=O (centres undefined) 0.47
